For each record, write down the corresponding Fold off-rate compared to g7B07.
- Target Under Test: T1, human Gal10-His (human, UniProt Q05315 2-142, limits assumed)
- T1 construct: also called hGal10-His; human Gal10-His tagged; not shown: His tag
- T1 sequence: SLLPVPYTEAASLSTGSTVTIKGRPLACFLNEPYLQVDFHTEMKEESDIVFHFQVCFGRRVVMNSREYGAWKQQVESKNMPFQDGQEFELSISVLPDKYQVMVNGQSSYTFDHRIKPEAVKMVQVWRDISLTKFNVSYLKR
- Assay Remarks: SPR Biacore 3000, Fab periplasmic extract on Gal10-His-coated CM5
// return numeric value only (unit: fold, not printed)

Query block: Look up and state reported Fold off-rate compared to g7B07 for g21F11 (Fab, periplasmic extract) (Fab, V domains shown, X4 library; VH assembled by inference) VH: EVQLLESGGGLVQPGGSLRLSCAASGFTFRSYDMSWVRQAPGKGLEWVSAIHTPMTYYADSVKGRFTISRDNSKNTLYLQMNSLRAEDTAVYYCATTHGIGTLGFGSWGQGTLVTVSS VL: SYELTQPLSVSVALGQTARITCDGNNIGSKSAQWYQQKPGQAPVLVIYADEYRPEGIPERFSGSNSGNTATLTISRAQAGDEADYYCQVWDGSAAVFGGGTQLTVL
Result block: 5.1

Query block: Assign Fold off-rate compared to g7B07 to the following record: g20B05 (Fab, periplasmic extract) (Fab, V domains shown, X3 library; VH assembled by inference) VH: EVQLLESGGGLVQPGGSLRLSCAASGFTFRSYDMSWVRQAPGKGLEWVSAIKPVGITYYADSVKGRFTISRDNSKNTLYLQMNSLRAEDTAVYYCATTHGIGTLGFGSWGQGTLVTVSS VL: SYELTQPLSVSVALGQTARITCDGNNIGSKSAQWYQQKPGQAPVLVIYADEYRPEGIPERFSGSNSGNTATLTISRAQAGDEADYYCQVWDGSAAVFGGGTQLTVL
Result block: 3.3

Query block: Input g23G11 (Fab, periplasmic extract) (Fab, V domains shown, X6 library; VH assembled by inference) VH: EVQLLESGGGLVQPGGSLRLSCAASGFTFRSYDMSWVRQAPGKGLEWVSAIQKTIVPTYYADSVKGRFTISRDNSKNTLYLQMNSLRAEDTAVYYCATTHGIGTLGFGSWGQGTLVTVSS VL: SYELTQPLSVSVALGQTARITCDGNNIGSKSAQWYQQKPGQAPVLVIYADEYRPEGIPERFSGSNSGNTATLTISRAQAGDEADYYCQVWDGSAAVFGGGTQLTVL , output reported Fold off-rate compared to g7B07.
Result block: 2.6

Where these numbers come from: patent US20250059285A1
